Reference source: patent US20220048967A1

- study system: T1, human gastric inhibitory peptide receptor (GIPR) (human, UniProt P48546 22-466)
- T1 sequence (looked up): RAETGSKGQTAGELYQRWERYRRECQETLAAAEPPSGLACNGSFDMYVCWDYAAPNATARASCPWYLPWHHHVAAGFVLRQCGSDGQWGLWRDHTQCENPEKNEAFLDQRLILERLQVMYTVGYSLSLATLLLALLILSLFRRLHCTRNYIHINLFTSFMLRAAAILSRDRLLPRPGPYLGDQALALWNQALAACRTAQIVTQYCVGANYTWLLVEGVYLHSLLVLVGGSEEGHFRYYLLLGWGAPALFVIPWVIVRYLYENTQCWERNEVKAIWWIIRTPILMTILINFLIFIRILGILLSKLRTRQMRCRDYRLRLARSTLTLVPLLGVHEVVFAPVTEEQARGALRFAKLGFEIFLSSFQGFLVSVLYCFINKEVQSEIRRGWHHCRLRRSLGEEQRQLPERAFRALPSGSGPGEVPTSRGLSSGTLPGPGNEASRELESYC
- procedure details: cell-based or functional assay
readout type: hGIPR cAMP Rel EC50
Include the unit after the number when you answer.

binder: YXEGTFTSDYSILLDKKAQXAFIEYLIEGGPSSGAPPPS (Aib2, (2-[2-(2-Amino-ethoxy)-ethoxy]-acetyl)2-(γ-Glu)-CO-(CH2)16-CO2H on K17, Aib20, C-terminal NH2) [Example 315]
hGIPR cAMP Rel EC50: 0.0408 nM
//
binder: YXEGTXTSDYSILLDKKAQXAFIEYLIEGGPSSGAPPPS (Aib2, αMeF(2F)6, (2-[2-(2-Amino-ethoxy)-ethoxy]-acetyl)2-(γ-Glu)-CO-(CH2)18-CO2H on K17, Aib20, C-terminal NH2) [Example 325]
hGIPR cAMP Rel EC50: 0.0301 nM
//
binder: XXEGTXTSDYSIXLDKKAQXAFIEYLIEGGPSSGAPPPS (not fully specified; D-Tyr1, Aib2, αMeF(2F)6, αMeL13, (2-[2-(2-Amino-ethoxy)-ethoxy]-acetyl)2-(γ-Glu)-CO-(CH2)18-CO2H on K17, Aib20, C-terminal NH2) [Example 336]
hGIPR cAMP Rel EC50: 0.0312 nM

The value of hGIPR cAMP Rel EC50 measured for the binder XXEGTFTSDYSIXLDXKAQXEFVEYLIAGGPSSGAPPPS (D-Tyr1, Aib2, αMeL13, Orn16, (2-[2-(2-Amino-ethoxy)-ethoxy]-acetyl)2-(γ-Glu)-CO-(CH2)18-CO2H on K17, Aib20, C-terminal NH2) [Example 359] turned out to be 0.172 nM

The value of hGIPR cAMP Rel EC50 measured for the binder XXEGTFTSDYSIXLDXKAQXEFIEXLIAGGPSSGAPPPS (D-Tyr1, Aib2, αMeL13, Orn16, (2-[2-(2-Amino-ethoxy)-ethoxy]-acetyl)2-(γ-Glu)-CO-(CH2)18-CO2H on K17, Aib20, αMeY25, C-terminal NH2) [Example 293] turned out to be 0.0562 nM

The value of hGIPR cAMP Rel EC50 measured for the binder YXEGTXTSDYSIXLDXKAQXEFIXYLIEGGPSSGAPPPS (Aib2, αMeF(2F)6, Aib13, Orn16, (2-[2-(2-Amino-ethoxy)-ethoxy]-acetyl)2-(γ-Glu)-CO-(CH2)18-CO2H on K17, Aib20, D-Glu24, C-terminal NH2) [Example 250] turned out to be 0.0376 nM
